# ASSAY TARGET: HIV-1 Env of isolate MGRM-A-012 (pseudovirus) (HIV-1)
# TEST: cell-based or functional assay
A collection of binders and their measured IC50 (µg/mL), pseudovirus neutralization
VALUE KIND: IC50 (µg/mL), pseudovirus neutralization

binder="PGT-123 (4858_P08) (antibody, V domains shown) VH: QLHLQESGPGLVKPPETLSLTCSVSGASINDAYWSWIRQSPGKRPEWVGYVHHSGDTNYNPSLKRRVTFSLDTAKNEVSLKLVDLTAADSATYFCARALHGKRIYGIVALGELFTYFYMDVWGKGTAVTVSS VL: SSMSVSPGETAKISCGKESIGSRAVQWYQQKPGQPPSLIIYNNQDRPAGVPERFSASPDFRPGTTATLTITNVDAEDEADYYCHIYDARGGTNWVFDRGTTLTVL" reported_value=0.192
binder="PGT-125 (5123_A06) (antibody, V domains shown) VH: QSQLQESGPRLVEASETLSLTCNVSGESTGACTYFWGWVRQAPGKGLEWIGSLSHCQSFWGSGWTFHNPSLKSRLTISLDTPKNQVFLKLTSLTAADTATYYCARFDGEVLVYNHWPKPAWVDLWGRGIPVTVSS VL: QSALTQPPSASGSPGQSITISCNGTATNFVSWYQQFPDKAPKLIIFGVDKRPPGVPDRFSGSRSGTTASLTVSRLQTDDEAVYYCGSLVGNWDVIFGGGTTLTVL" reported_value=0.177
binder="PGT-126 (5141_B17) (antibody, V domains shown) VH: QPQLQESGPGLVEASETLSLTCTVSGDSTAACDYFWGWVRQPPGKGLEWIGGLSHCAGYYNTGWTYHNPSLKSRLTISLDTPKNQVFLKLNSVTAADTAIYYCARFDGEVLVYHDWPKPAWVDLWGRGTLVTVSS VL: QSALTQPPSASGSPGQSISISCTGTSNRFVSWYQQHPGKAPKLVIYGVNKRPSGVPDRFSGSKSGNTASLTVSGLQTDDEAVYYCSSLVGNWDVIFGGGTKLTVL" reported_value=0.097
binder="PGT-127 (5145_B14) (antibody, V domains shown) VH: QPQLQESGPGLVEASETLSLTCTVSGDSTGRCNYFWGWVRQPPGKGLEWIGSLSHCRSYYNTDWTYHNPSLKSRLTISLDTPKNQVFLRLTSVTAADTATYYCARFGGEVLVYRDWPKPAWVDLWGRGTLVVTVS VL: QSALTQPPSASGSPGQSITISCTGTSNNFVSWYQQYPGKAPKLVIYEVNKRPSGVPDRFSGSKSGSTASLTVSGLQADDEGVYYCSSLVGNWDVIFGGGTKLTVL" reported_value=0.105
